target: Cruzipain (Trypanosoma cruzi, UniProt P25779); assay: Inhibition of Trypanosoma cruzi recombinant cruzain using Z-FR-AMC as substrate after 5 mins by fluorescence assay
Sequence (P25779 whole entry): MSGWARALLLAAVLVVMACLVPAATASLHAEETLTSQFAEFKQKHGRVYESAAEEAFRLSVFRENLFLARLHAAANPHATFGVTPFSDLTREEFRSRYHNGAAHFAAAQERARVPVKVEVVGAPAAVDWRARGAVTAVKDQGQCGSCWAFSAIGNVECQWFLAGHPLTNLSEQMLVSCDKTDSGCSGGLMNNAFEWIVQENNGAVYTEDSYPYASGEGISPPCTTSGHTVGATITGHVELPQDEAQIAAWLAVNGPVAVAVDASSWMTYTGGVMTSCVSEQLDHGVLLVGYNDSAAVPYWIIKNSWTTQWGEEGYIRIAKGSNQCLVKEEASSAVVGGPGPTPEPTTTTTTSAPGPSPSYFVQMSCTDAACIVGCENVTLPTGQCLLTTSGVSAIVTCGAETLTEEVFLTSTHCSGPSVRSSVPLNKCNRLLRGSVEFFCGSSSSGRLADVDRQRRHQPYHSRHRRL
Below, each entry is listed with its recorded IC50.

Answered examples (5):
Recorded IC50 for COCCC(C(=O)COc1c(F)c(F)cc(F)c1F)n1cc([C@@](C)(NCc2ccn3nccc3n2)C2CCCC2)nn1 (stereo partly specified) , please?
2.82 µM

Recorded IC50 for CCCCC(C(=O)COc1c(F)c(F)cc(F)c1F)n1cc([C@@](C)(NCc2ccncc2)C(C)C)nn1 (stereo partly specified) , please?
1.1 µM

Recorded IC50 for CCCCC(C(=O)COc1c(F)c(F)cc(F)c1F)n1cc([C@@](C)(NCc2ccn3nccc3n2)C2CCCC2)nn1 (stereo partly specified) , please?
0.003 µM

Recorded IC50 for C[C@@](NCc1ccc2ncsc2c1)(c1cn(C(CCS(C)(=O)=O)C(=O)COc2c(F)c(F)cc(F)c2F)nn1)C1CCCC1 (stereo partly specified) , please?
0.025 µM

Recorded IC50 for CC(C)[C@](C)(NCc1ccc2ncsc2c1)c1cn(C(CCS(C)(=O)=O)C(=O)COc2c(F)c(F)cc(F)c2F)nn1 (stereo partly specified) , please?
0.125 µM

***
Recorded IC50 for CC(C)[C@](C)(NCc1ccc2occc2c1)c1cn(C(CCS(C)(=O)=O)C(=O)COc2c(F)c(F)cc(F)c2F)nn1 (stereo partly specified) , please?
0.88 µM

Recorded IC50 for CCCCC(C(=O)COc1c(F)c(F)cc(F)c1F)n1cc([C@@](C)(NC(=O)c2ccc3ncsc3c2)C(C)C)nn1 (stereo partly specified) , please?
3.59 µM

Recorded IC50 for CCCCC(C(=O)COc1c(F)c(F)cc(F)c1F)n1cc([C@@](C)(NCc2ccc3ncsc3c2)C(C)C)nn1 (stereo partly specified) , please?
0.037 µM

Recorded IC50 for CCCCC(C(=O)COc1c(F)c(F)cc(F)c1F)n1cc([C@@](C)(NCc2ccc3ncccc3c2)C2CCCC2)nn1 (stereo partly specified) , please?
0.027 µM

Recorded IC50 for CC(C)[C@](C)(NCc1ccc2ncccc2c1)c1cn(C(CCS(C)(=O)=O)C(=O)COc2c(F)c(F)cc(F)c2F)nn1 (stereo partly specified) , please?
0.56 µM

Recorded IC50 for COCCC(C(=O)COc1c(F)c(F)cc(F)c1F)n1cc([C@@](C)(NCc2ccc3ncsc3c2)C2CCCC2)nn1 (stereo partly specified) , please?
0.124 µM

----------
test: Clearance in mouse at 10 mg/kg, iv; assay type: ADME, organism-based; details: in vivo
Below, each entry is listed with its recorded clearance.
Please reply with the bare figure in mL/min/kg and do not write the unit itself.

Recorded clearance for CCCCC(C(=O)COc1c(F)c(F)cc(F)c1F)n1cc([C@@](C)(NCc2ccc3ncsc3c2)C(C)C)nn1 (some centres undefined) , please?
16.6

Recorded clearance for CCCCC(C(=O)COc1c(F)c(F)cc(F)c1F)n1cc([C@@](C)(NCc2ccc3ncccc3c2)C2CCCC2)nn1 (some centres undefined) , please?
19

Recorded clearance for CCCCC(C(=O)COc1c(F)c(F)cc(F)c1F)n1cc([C@@](C)(NCc2ccn3nccc3n2)C2CCCC2)nn1 (some centres undefined) , please?
30.7

Now look at this entry.
Recorded clearance for CCCCC(C(=O)COc1c(F)c(F)cc(F)c1F)n1cc([C@@](C)(NCc2ccc3ncccc3c2)C(C)C)nn1 (some centres undefined) , please?
36.2

----------
assay: AUC in mouse at 40 mg/kg, po; format: ADME, organism-based; settings: in vivo
MEASURE NAME: AUC (ng·h/mL)
Please reply with the bare figure in ng·h/mL and do not write the unit itself.

Answered examples (3):
Recorded AUC for CCCCC(C(=O)COc1c(F)c(F)cc(F)c1F)n1cc([C@@](C)(NCc2ccc3ncsc3c2)C(C)C)nn1 (some centres undefined) , please?
6570

Recorded AUC for CCCCC(C(=O)COc1c(F)c(F)cc(F)c1F)n1cc([C@@](C)(NCc2ccc3ncccc3c2)C2CCCC2)nn1 (some centres undefined) , please?
8100

Recorded AUC for CCCCC(C(=O)COc1c(F)c(F)cc(F)c1F)n1cc([C@@](C)(NCc2ccn3nccc3n2)C2CCCC2)nn1 (some centres undefined) , please?
8110

Now look at this entry.
Recorded AUC for CCCCC(C(=O)COc1c(F)c(F)cc(F)c1F)n1cc([C@@](C)(NCc2ccc3ncccc3c2)C(C)C)nn1 (some centres undefined) , please?
3860

----------
tested on: Mus musculus; assay: Oral bioavailability in mouse at 40 mg/kg; assay type: ADME, organism-based; conditions: in vivo
Below, each entry is listed with its recorded F.
Please reply with the bare figure in % and do not write the unit itself.

Answered examples (3):
Recorded F for CCCCC(C(=O)COc1c(F)c(F)cc(F)c1F)n1cc([C@@](C)(NCc2ccc3ncccc3c2)C2CCCC2)nn1 (some centres undefined) , please?
23

Recorded F for CCCCC(C(=O)COc1c(F)c(F)cc(F)c1F)n1cc([C@@](C)(NCc2ccn3nccc3n2)C2CCCC2)nn1 (some centres undefined) , please?
37

Recorded F for CCCCC(C(=O)COc1c(F)c(F)cc(F)c1F)n1cc([C@@](C)(NCc2ccc3ncccc3c2)C(C)C)nn1 (some centres undefined) , please?
21

***
Recorded F for CCCCC(C(=O)COc1c(F)c(F)cc(F)c1F)n1cc([C@@](C)(NCc2ccc3ncsc3c2)C(C)C)nn1 (some centres undefined) , please?
19.1

----------
Below, each entry is listed with its recorded Papp.
test system: MDCK; test: Apparent permeability from apical to basolateral side in MDCK cells assessed as per 10^-6 cells; format: ADME, cell-based, Canis lupus familiaris; conditions: dog
Please reply with the bare figure in nm/s and do not write the unit itself.

Recorded Papp for CCCCC(C(=O)COc1c(F)c(F)cc(F)c1F)n1cc([C@@](C)(NCc2ccc3ncccc3c2)C2CCCC2)nn1 (some centres not stated) , please?
4.8

Recorded Papp for CC(C)[C@](C)(NCc1ccc2ncccc2c1)c1cn(C(CCS(C)(=O)=O)C(=O)COc2c(F)c(F)cc(F)c2F)nn1 (some centres not stated) , please?
34.9

Recorded Papp for CCCCC(C(=O)COc1c(F)c(F)cc(F)c1F)n1cc([C@@](C)(NCc2ccn3nccc3n2)C(C)C)nn1 (some centres not stated) , please?
151

Recorded Papp for CCCCC(C(=O)COc1c(F)c(F)cc(F)c1F)n1cc([C@@](C)(NCc2ccn3nccc3n2)C2CCCC2)nn1 (some centres not stated) , please?
29

Recorded Papp for CCCCC(C(=O)COc1c(F)c(F)cc(F)c1F)n1cc([C@@](C)(NCc2ccc3ncccc3c2)C(C)C)nn1 (some centres not stated) , please?
30.2

Recorded Papp for CCCCC(C(=O)COc1c(F)c(F)cc(F)c1F)n1cc([C@@](C)(NCc2ccc3ncsc3c2)C(C)C)nn1 (some centres not stated) , please?
22.6

***
Recorded Papp for C[C@@](NCc1ccc2ncsc2c1)(c1cn(C(CCS(C)(=O)=O)C(=O)COc2c(F)c(F)cc(F)c2F)nn1)C1CCCC1 (some centres not stated) , please?
68

----------
Below, each entry is listed with its recorded Vd.
test: Volume of distribution at steady state in mouse at 10 mg/kg, iv; format: ADME, organism-based; settings: in vivo, read-out: Vdss
Please reply with the bare figure in L/kg and do not write the unit itself.

Answered examples (3):
Recorded Vd for CCCCC(C(=O)COc1c(F)c(F)cc(F)c1F)n1cc([C@@](C)(NCc2ccc3ncsc3c2)C(C)C)nn1 (some centres undefined) , please?
6.5

Recorded Vd for CCCCC(C(=O)COc1c(F)c(F)cc(F)c1F)n1cc([C@@](C)(NCc2ccn3nccc3n2)C2CCCC2)nn1 (some centres undefined) , please?
4.19

Recorded Vd for CCCCC(C(=O)COc1c(F)c(F)cc(F)c1F)n1cc([C@@](C)(NCc2ccc3ncccc3c2)C(C)C)nn1 (some centres undefined) , please?
4.2

***
Recorded Vd for CCCCC(C(=O)COc1c(F)c(F)cc(F)c1F)n1cc([C@@](C)(NCc2ccc3ncccc3c2)C2CCCC2)nn1 (some centres undefined) , please?
5.4

----------
assay: Half life in mouse at 10 mg/kg, iv; assay type: ADME, organism-based; settings: in vivo
Below, each entry is listed with its recorded half-life.
Please reply with the bare figure in h and do not write the unit itself.

Answered examples (3):
Recorded half-life for CCCCC(C(=O)COc1c(F)c(F)cc(F)c1F)n1cc([C@@](C)(NCc2ccc3ncccc3c2)C(C)C)nn1 (some centres undefined) , please?
2.95

Recorded half-life for CCCCC(C(=O)COc1c(F)c(F)cc(F)c1F)n1cc([C@@](C)(NCc2ccc3ncsc3c2)C(C)C)nn1 (some centres undefined) , please?
5.67

Recorded half-life for CCCCC(C(=O)COc1c(F)c(F)cc(F)c1F)n1cc([C@@](C)(NCc2ccn3nccc3n2)C2CCCC2)nn1 (some centres undefined) , please?
3.04

***
Recorded half-life for CCCCC(C(=O)COc1c(F)c(F)cc(F)c1F)n1cc([C@@](C)(NCc2ccc3ncccc3c2)C2CCCC2)nn1 (some centres undefined) , please?
4.2
